Origin of measurements: patent US11912668B2

Heads up, these compounds all have IC50 values measured for PERK kinase (Homo sapiens (Human)).

CNc1ncc2cc(-c3cc(NS(=O)(=O)c4cc(Cl)cnc4OC)cc(F)c3F)c(C)nc2n1; 100 to 500 nM
CNc1ncc2cc(-c3cccc(NS(=O)(=O)c4cc(Cl)ccc4OC)c3F)c(NC)nc2n1; ≤ 100 nM
CNc1ncc2cc(-c3cccc(NS(=O)(=O)c4cc(Cl)cnc4OC)c3)ccc2n1; 1000 to 10000 nM
CNc1ncc2cc(-c3cccc(NS(=O)(=O)c4cc(Cl)cnc4NC)c3F)ccc2n1; ≤ 100 nM
CNc1ncc2cc(-c3cccc(NS(=O)(=O)c4cc(Cl)cnc4OC)c3F)c(OC)nc2n1; ≤ 100 nM

Would you kindly share the measured IC50 for CNc1ncc2cc(-c3cccc(NS(=O)(=O)c4cc(F)cnc4OC)c3F)c(NC)nc2n1 ?
100 to 500 nM

Which IC50 is reported for this compound? CNc1ncc2cc(-c3cccc(NS(=O)(=O)c4ccc(OC)c(Cl)c4)c3F)ccc2n1
100 to 500 nM
